# ASSAY SYSTEM: Voltage-dependent calcium channel gamma-2 subunit (Mus musculus) + Glutamate receptor 2 (Rattus norvegicus) (UniProt O88602+P19491)
# Sequence (O88602 whole entry, looked up): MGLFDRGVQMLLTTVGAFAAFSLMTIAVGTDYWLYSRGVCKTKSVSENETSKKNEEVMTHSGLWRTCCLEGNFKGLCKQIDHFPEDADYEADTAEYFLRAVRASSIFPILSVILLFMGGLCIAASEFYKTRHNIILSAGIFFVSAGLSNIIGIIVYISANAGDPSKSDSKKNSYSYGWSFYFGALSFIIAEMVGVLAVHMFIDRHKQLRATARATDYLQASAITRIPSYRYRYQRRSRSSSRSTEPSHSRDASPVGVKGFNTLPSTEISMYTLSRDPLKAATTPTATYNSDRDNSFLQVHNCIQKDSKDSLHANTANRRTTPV
# Sequence (P19491 whole entry, looked up): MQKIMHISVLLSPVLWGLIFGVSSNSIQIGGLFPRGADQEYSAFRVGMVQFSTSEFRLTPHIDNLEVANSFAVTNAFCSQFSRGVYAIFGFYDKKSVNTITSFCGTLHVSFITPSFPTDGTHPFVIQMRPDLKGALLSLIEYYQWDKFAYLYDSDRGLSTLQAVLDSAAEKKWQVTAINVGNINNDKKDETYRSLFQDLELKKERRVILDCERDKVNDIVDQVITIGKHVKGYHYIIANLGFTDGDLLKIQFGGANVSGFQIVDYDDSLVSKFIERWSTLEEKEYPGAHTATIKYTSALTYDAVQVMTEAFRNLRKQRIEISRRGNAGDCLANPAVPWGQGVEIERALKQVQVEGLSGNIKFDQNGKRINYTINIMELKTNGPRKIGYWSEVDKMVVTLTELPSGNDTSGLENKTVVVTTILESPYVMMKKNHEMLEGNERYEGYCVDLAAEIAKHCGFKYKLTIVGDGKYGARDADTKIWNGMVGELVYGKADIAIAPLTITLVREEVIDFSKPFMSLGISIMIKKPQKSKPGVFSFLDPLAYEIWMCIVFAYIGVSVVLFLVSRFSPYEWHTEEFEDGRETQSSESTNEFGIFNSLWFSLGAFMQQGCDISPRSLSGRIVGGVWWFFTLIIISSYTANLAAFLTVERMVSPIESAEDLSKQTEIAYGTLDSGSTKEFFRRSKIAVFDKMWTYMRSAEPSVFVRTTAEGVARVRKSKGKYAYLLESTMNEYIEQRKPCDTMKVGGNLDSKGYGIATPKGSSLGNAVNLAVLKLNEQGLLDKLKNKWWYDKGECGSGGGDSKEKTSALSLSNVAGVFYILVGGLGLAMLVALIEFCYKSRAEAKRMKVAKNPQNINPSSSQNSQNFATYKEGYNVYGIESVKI
# PROTOCOL SUMMARY: modulators of GluA2-stargazin AMPA receptor complexes, primary screen, cell-based, membrane potential dye (AID 1259245)
# TEST PARAMETERS: HEK293 GluA2+stargazin, membrane potential dye (FDSS), glutamate EC50, at 30 µM, hits were called plate by plate, in both directions; measured here: glutamate response slope, % max
The campaign covered roughly 40,000 compounds. About 1,400 (3.5%) were called active. Many of the other results were omitted from the sample, so actives are more common in it than they were.
# glutamate slope, % of max >= 60% gives met, anything below gives not met

Use the examples below as a reference point.
COMPOUND | CLASS
CCOc1ccccc1C(=O)N1CCN(c2ccc(-c3ccccn3)nn2)CC1 | not met
O=C(Nc1ccc(N2CCCS2(=O)=O)cc1)c1ccc([N+](=O)[O-])cc1 | not met
CCOC(=O)N1CCN(/C=C(\C#N)C(=O)Nc2ccccc2)CC1 | met
COc1ccc(-c2ccc(N3CCN(C(=O)c4ccc(=O)[nH]n4)CC3)nn2)cc1 | not met
Cc1ccc(-c2nc3c(C)cc(C)cc3c(=O)o2)cc1 | not met

## Task Exam item: decide whether the reported glutamate slope, % of max for CC(=O)N1CCN(c2ccnc3c2c(=O)n(CC(=O)NCC2CCCO2)c(=O)n3C)CC1 (configuration not stated) is at least 60%.
## Result met

====

# ASSAY SYSTEM: Voltage-dependent calcium channel gamma-2 subunit (Mus musculus) + Glutamate receptor 2 (Rattus norvegicus) (UniProt O88602+P19491)
# PROTOCOL SUMMARY: modulators of GluA2-stargazin AMPA receptor complexes, primary screen, cell-based, membrane potential dye (AID 1259245)
# TEST PARAMETERS: HEK293 GluA2+stargazin, membrane potential dye (FDSS), glutamate EC50, at 30 µM, hits were called plate by plate, in both directions; measured here: glutamate response slope, % max
About 1,400 (3.5%) of roughly 40,000 compounds were called active. The sample as a whole holds a higher share of actives than the screen did.
# glutamate slope, % of max >= 60% gives TRUE, anything below gives FALSE

Use the examples below as a reference point.
MOLECULE | CLASS
CCCN(CCC)S(=O)(=O)c1cc([N+](=O)[O-])ccc1C | TRUE
Cc1ccc([N+](=O)[O-])cc1NC(=O)C(=O)NCC(c1cccs1)N(C)C (stereo not drawn) | TRUE
COCC(C)(O)CNC(=O)c1cc(C)oc1C (stereo not drawn) | TRUE
COc1ccc(CCNC(=O)CCc2sc(C)nc2-c2cccs2)cc1 | FALSE
c1nc(N2CCN(Cc3ccc4c(c3)OCO4)CC2)c2c3c(sc2n1)CCCC3 | TRUE

## Task Exam item: decide whether the reported glutamate slope, % of max for Cc1ccccc1NC(=O)NC1(c2nc(-c3ccsc3)no2)CCCCC1 is at least 60%.
## Result FALSE

## Task Exam item: decide whether the reported glutamate slope, % of max for Cc1nc(-c2cccs2)c(CCC(=O)NCc2ccc3c(c2)OCO3)s1 is at least 60%.
## Result FALSE

## Task Exam item: decide whether the reported glutamate slope, % of max for COc1ccc2nc(N(CCN3CCOCC3)C(=O)c3cc4cc([N+](=O)[O-])ccc4s3)sc2c1 is at least 60%.
## Result FALSE

## Task Exam item: decide whether the reported glutamate slope, % of max for O=S(=O)(Cc1ccc(Cl)cc1)c1ccc(NCc2ccccc2)nn1 is at least 60%.
## Result TRUE

## Task Exam item: decide whether the reported glutamate slope, % of max for COC(=O)c1ccc(NC(=O)CSc2nc(-c3ccccc3)c(N)s2)cc1 is at least 60%.
## Result TRUE

## Task Exam item: decide whether the reported glutamate slope, % of max for COc1ccc(CN(CC(=O)N(C)c2ccccc2)S(=O)(=O)c2cccnc2)cc1 is at least 60%.
## Result FALSE

## Task Exam item: decide whether the reported glutamate slope, % of max for CCOc1ccc(C)cc1S(=O)(=O)Nc1cc(Cl)ccc1O is at least 60%.
## Result FALSE

## Task Exam item: decide whether the reported glutamate slope, % of max for COc1ccc(C)cc1S(=O)(=O)Nc1cc(Cl)ccc1O is at least 60%.
## Result FALSE

====

# ASSAY SYSTEM: Voltage-dependent calcium channel gamma-2 subunit (Mus musculus) + Glutamate receptor 2 (Rattus norvegicus) (UniProt O88602+P19491)
# PROTOCOL SUMMARY: modulators of GluA2-stargazin AMPA receptor complexes, primary screen, cell-based, membrane potential dye (AID 1259245)
# TEST PARAMETERS: HEK293 GluA2+stargazin, membrane potential dye (FDSS), glutamate EC50, at 30 µM, hits were called plate by plate, in both directions; compound-alone response (agonism)
In all, about 40,000 compounds went through this assay and about 1,400 (3.5%) were called active. The sample as a whole holds a higher share of actives than the screen did.
QUANTITY KIND: compound max-min signal
Simply state the number, no unit and no words.

Worked cases, answers included:
MOLECULE | QUANTITY KIND | MEASURED NUMBER
CCCCN1CC(c2nc3ccccc3n2Cc2cc(C)ccc2C)CC1=O (configuration not stated) | compound max-min signal | 0.12
COc1ccc(SCCC(=O)N2CCN(c3nc4ccc(F)cc4s3)CC2)cc1 | compound max-min signal | 0.0995
COC(=O)c1ccc(NC(=O)Cn2c(=O)n(C(C)C)c(=O)c3nscc32)cc1 | compound max-min signal | 0.116
Cc1c(Cl)ccc2sc(N(Cc3ccccn3)C(=O)Cc3ccc(S(C)(=O)=O)cc3)nc12 | compound max-min signal | 0.0569
O=C(NCCCN1CCCC1=O)C(=O)Nc1c2c(nn1-c1cccc(Cl)c1)CSC2 | compound max-min signal | 0.0244
CSc1cccc(NC(=O)Cn2c(=O)n(C3CC3)c(=O)c3nscc32)c1 | compound max-min signal | 0.107
O=C(c1ccno1)N1CCN(c2nc3ccc([N+](=O)[O-])cc3s2)CC1 | compound max-min signal | 0.188
c1nc(N2CCN(Cc3ccc4c(c3)OCO4)CC2)c2c3c(sc2n1)CCCC3 | compound max-min signal | 0.0914

Let us examine a further case.
## Task Look at this molecule and give its reported compound max-min signal. CN(C)C(CNC(=O)C(=O)Nc1ccc2c(c1)OCCO2)c1cccn1C (configuration not stated)
## Result 0.0533

====

# ASSAY SYSTEM: Voltage-dependent calcium channel gamma-2 subunit (Mus musculus) + Glutamate receptor 2 (Rattus norvegicus) (UniProt O88602+P19491)
# PROTOCOL SUMMARY: modulators of GluA2-stargazin AMPA receptor complexes, primary screen, cell-based, membrane potential dye (AID 1259245)
# TEST PARAMETERS: HEK293 GluA2+stargazin, membrane potential dye (FDSS), glutamate EC50, at 30 µM, hits were called plate by plate, in both directions
In all, about 40,000 compounds went through this assay and about 1,400 (3.5%) were called active.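 How the source made its calls: active means any of four per-well response measures lying three or more SD from its plate-wide compound average, in either direction; inactive means the rest, inconclusive results apart.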 Only a selection was taken, and actives are over-represented in it overall.
Hi! Could you answer with just one of these? class 1 = active, class 0 = inactive

Use the examples below as a reference point.
MOLECULE | CLASS
COc1cc(CN2CCN(c3nccn3C)CC2)cc(OC)c1 | class 0
COc1ccc(NC(=O)C(=O)Nc2cc([N+](=O)[O-])ccc2C)cc1OC | class 1
CCCC(CCC)C(=O)Nc1cc(C)nn1-c1nc2c(cnn2-c2cccc(Cl)c2)c(=O)[nH]1 | class 0

## Task Tell me the assay call for Cc1cc(C)n(CCNC(=O)/C=C/c2cccs2)n1 please.
## Result class 0

## Task Tell me the assay call for O=S(=O)(c1ccc(C2CCCCC2)cc1)N1CCC(Cc2ccccc2)CC1 please.
## Result class 0

====

# ASSAY SYSTEM: Voltage-dependent calcium channel gamma-2 subunit (Mus musculus) + Glutamate receptor 2 (Rattus norvegicus) (UniProt O88602+P19491)
# PROTOCOL SUMMARY: modulators of GluA2-stargazin AMPA receptor complexes, primary screen, cell-based, membrane potential dye (AID 1259245)
# TEST PARAMETERS: HEK293 GluA2+stargazin, membrane potential dye (FDSS), glutamate EC50, at 30 µM, hits were called plate by plate, in both directions
The whole screen tested about 40,000 compounds, of which about 1,400 (3.5%) were called active. Only a selection was taken, and actives are over-represented in it overall.
Examples of compounds with documented glutamate response, % of max follow.
A number alone suffices; assume %.

Worked cases, answers included:
COMPOUND | QUANTITY KIND | MEASURED NUMBER
COCCCNc1nc2c(c(=O)n(C)c(=O)n2C)n1CC(O)COc1ccc(C)c(C)c1 (stereo unspecified) | glutamate response, % of max | 46.2
COCCCn1c(C(=O)Nc2cccnc2)cc2c(=O)n(C)c(=O)n(C)c21 | glutamate response, % of max | 24.6
CCOC(=O)c1ccc(NC(=O)c2cccnc2)cc1 | glutamate response, % of max | 27.5
Cc1ccc(NC(=O)NCC(O)c2ccc(C(F)(F)F)cc2)cc1 (stereo unspecified) | glutamate response, % of max | 16.6
Cn1cccc1C(CNC(=O)C(=O)Nc1ccccc1F)N1CCOCC1 (stereo unspecified) | glutamate response, % of max | 30.1

Let us examine a further case.
## Task Look at this compound and give its reported glutamate response, % of max. CC(NC(=O)C12CC3CC(CC(C3)C1)C2)C(=O)N/N=C/c1ccc([N+](=O)[O-])o1 (stereo unspecified)
## Result 27.9
